Catalogue of EC50 values
Assayed System: mMC3R (Mus musculus, UniProt P33033)
Sequence (P33033 whole entry): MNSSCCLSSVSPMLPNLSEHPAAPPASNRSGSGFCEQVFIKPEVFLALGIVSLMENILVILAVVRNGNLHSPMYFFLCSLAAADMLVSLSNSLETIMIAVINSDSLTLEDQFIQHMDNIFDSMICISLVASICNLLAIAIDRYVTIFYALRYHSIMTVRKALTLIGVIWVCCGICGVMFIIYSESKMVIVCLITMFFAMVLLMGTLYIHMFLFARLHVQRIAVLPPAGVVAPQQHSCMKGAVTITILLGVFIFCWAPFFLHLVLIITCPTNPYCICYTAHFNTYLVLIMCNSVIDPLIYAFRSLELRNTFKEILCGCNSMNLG
Test Summary: AlphaScreen cAMP agonist assay, HEK293 cells stably expressing mMC3R

Solved entries (count: 2):
INSERT INTO results (smiles_record, assayed_system, measurement_type, meas_value) VALUES
  ('CC(C)[C@@H]1CNC(=N)N1C[C@@H]1CCCN1C[C@@H](CC1CCCCC1)N1CCNC1=N', 'mMC3R (Mus musculus, UniProt P33033)', 'EC50', '> 1000 µM'),
  ('CCC[C@@H]1CN([C@H](CC2CCCCC2)CN2CCC[C@H]2CN2C(=N)NC[C@H]2C(C)C)C(=N)N1', 'mMC3R (Mus musculus, UniProt P33033)', 'EC50', '> 1000 µM');

Okay, next one:
Data request, read-out EC50, for CCN1C(=N)N([C@H](Cc2ccccc2)CN2CCC[C@H]2CN2C(=N)NC[C@H]2CC(C)C)C[C@H]1[C@H](C)O
> 1000 µM
